Test system: Mycolicibacterium vaccae
Run Description: Antibacterial activity against Mycobacterium vaccae IMET 10670
Type: functional
Reported MIC values for a set of compounds
Parameter Measured: MIC (µM)

smiles_text=O=C(Cc1ccccc1)N[C@@H]1C(=O)N2C(C(=O)O)=C(COC(=O)N3CCN(c4nc(=O)c5cc(C(F)(F)F)cc([N+](=O)[O-])c5s4)CC3)CS[C@H]12 parameter_measured=MIC unit_of_measurement=µM value=0.2
smiles_text=C[C@H]1COC2(CCN(c3nc(=O)c4cc(C(F)(F)F)cc([N+](=O)[O-])c4s3)CC2)O1 parameter_measured=MIC unit_of_measurement=µM value=0.03
smiles_text=CC(C)(C)OC(=O)C1=C(CN2CCN(c3nc(=O)c4cc(C(F)(F)F)cc([N+](=O)[O-])c4s3)CC2)CS[C@@H]2[C@H](NC(=O)Cc3ccccc3)C(=O)N12 parameter_measured=MIC unit_of_measurement=µM value=0.8
smiles_text=O=C(Cc1ccccc1)N[C@@H]1C(=O)N2C(C(=O)O)=C(CN3CCN(c4nc(=O)c5cc(C(F)(F)F)cc([N+](=O)[O-])c5s4)CC3)CS[C@H]12 parameter_measured=MIC unit_of_measurement=µM value=12.5

---

System: Bacillus subtilis
Run Description: Antibacterial activity against Bacillus subtilis ATCC 6633
Assay type: functional
Reported MIC values for a set of molecules
Parameter Measured: MIC (µM)

smiles_text=O=C(O)c1cn(C2CC2)c2cc(N3CCNCC3)c(F)cc2c1=O unit_of_measurement=µM value_comparator== value=0.15
smiles_text=O=C(Cc1ccccc1)N[C@@H]1C(=O)N2C(C(=O)O)=C(CN3CCN(c4nc(=O)c5cc(C(F)(F)F)cc([N+](=O)[O-])c5s4)CC3)CS[C@H]12 unit_of_measurement=µM value_comparator=< value=0.003
smiles_text=O=C(Cc1ccccc1)N[C@@H]1C(=O)N2C(C(=O)O)=C(COC(=O)N3CCN(c4nc(=O)c5cc(C(F)(F)F)cc([N+](=O)[O-])c5s4)CC3)CS[C@H]12 unit_of_measurement=µM value_comparator== value=0.8
smiles_text=COc1ccc(COC(=O)C2=C(CN3CCN(c4nc(=O)c5cc(C(F)(F)F)cc([N+](=O)[O-])c5s4)CC3)CS[C@@H]3[C@H](NC(=O)Cc4ccccc4)C(=O)N23)cc1 unit_of_measurement=µM value_comparator== value=0.1
smiles_text=O=C(Cc1ccccc1)N[C@@H]1C(=O)N2C(C(=O)O)=C(CN3CCN(c4cc5c(cc4F)c(=O)c(C(=O)O)cn5C4CC4)CC3)CS[C@H]12 unit_of_measurement=µM value_comparator=< value=0.1
smiles_text=CC(C)(C)OC(=O)C1=C(CN2CCN(c3nc(=O)c4cc(C(F)(F)F)cc([N+](=O)[O-])c4s3)CC2)CS[C@@H]2[C@H](NC(=O)Cc3ccccc3)C(=O)N12 unit_of_measurement=µM value_comparator== value=1.56

---

System: Mycolicibacterium vaccae
Run Description: Antibacterial activity against Mycobacterium vaccae IMET 10670 assessed as zone of growth inhibition by agar diffusion assay
Format: functional
Reported inhibition zone (IZ) values for a set of compounds
Parameter Measured: inhibition zone (IZ) (mm)

smiles_text=O=C(Cc1ccccc1)N[C@@H]1C(=O)N2C(C(=O)O)=C(CN3CCN(c4nc(=O)c5cc(C(F)(F)F)cc([N+](=O)[O-])c5s4)CC3)CS[C@H]12 parameter_measured="inhibition zone (IZ)" value=33
smiles_text=O=C(Cc1ccccc1)N[C@@H]1C(=O)N2C(C(=O)O)=C(COC(=O)N3CCN(c4nc(=O)c5cc(C(F)(F)F)cc([N+](=O)[O-])c5s4)CC3)CS[C@H]12 parameter_measured="inhibition zone (IZ)" value=48
smiles_text=COc1ccc(COC(=O)C2=C(CN3CCN(c4nc(=O)c5cc(C(F)(F)F)cc([N+](=O)[O-])c5s4)CC3)CS[C@@H]3[C@H](NC(=O)Cc4ccccc4)C(=O)N23)cc1 parameter_measured="inhibition zone (IZ)" value=24
smiles_text=CC(C)(C)OC(=O)C1=C(CN2CCN(c3nc(=O)c4cc(C(F)(F)F)cc([N+](=O)[O-])c4s3)CC2)CS[C@@H]2[C@H](NC(=O)Cc3ccccc3)C(=O)N12 parameter_measured="inhibition zone (IZ)" value=29

Where these numbers come from: ChEMBL document CHEMBL3785045
